targetOfAssay: GST-tagged recombinant human RIP2 (Homo sapiens (Human), UniProt O43353)
Sequence (O43353 whole entry): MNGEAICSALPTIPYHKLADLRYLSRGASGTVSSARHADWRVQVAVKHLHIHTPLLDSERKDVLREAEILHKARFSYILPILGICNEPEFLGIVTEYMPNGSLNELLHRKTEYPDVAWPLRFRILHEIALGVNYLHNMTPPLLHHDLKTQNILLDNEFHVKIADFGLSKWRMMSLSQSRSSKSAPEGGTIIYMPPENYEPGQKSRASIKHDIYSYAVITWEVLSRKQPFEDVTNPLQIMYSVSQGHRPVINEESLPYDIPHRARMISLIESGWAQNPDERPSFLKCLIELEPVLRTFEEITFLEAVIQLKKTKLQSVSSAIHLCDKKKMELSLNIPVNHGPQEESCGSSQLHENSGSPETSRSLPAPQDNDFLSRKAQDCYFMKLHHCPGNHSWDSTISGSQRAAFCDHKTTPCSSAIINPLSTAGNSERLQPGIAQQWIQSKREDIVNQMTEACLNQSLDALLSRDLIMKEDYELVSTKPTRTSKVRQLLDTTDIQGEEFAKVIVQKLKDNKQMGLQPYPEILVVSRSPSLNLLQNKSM
assaySummary: RIP2 Kinase Assay (ADP-Glo)
Format: biochemical
testConditions: in vitro kinase activity, ATP 25 μM
pIC50: −log10 of the molar value.
measuredQuantity: pIC50

Recorded pIC50 for Cc1c(-c2ccc3nc(N)c(C(=O)[C@@H]4C[C@@H]4F)n3c2)ccc2[nH]ncc12 , please?
7.00 to 9.00

Param item = Cc1c(-c2ccc3nc(N)c(C(=O)c4ccncn4)n3c2)cnc2[nH]ccc12 ; retrieve measured pIC50.
7.00 to 9.00

Consider the molecule shown here: Nc1nc2ccc(-c3cccc(F)c3CCCO)cn2c1C(=O)[C@@H]1C[C@@H]1F What is its recorded pIC50?
6.30 to 7.00

Bench note: what pIC50 did Nc1nc2ccc(-c3ccc4cc[nH]c4c3)cn2c1C(=O)[C@@H]1C[C@@H]1F show?
7.00 to 9.00

Then there is this molecule:
# input molecule: CSc1c(F)c(Cl)c(-c2ccc3nc(N)c(C(=O)O[C@@H]4COC[C@H]4C)n3c2)c2cn[nH]c12 ; wanted: its pIC50
< 6.00
